# study_system: CDK9 (Homo sapiens, UniProt P50750)
# Sequence (P50750 whole entry): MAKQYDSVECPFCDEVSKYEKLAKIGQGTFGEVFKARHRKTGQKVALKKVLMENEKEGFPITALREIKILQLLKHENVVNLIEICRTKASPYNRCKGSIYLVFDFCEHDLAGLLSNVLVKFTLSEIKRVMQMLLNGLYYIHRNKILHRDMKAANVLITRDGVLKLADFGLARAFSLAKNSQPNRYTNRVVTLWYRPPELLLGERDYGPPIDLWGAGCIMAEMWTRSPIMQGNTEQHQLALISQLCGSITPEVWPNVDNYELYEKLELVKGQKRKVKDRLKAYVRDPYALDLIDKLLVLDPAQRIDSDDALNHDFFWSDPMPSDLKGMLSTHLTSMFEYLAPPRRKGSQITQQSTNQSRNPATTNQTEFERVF
# Sequence (O60563 whole entry partner): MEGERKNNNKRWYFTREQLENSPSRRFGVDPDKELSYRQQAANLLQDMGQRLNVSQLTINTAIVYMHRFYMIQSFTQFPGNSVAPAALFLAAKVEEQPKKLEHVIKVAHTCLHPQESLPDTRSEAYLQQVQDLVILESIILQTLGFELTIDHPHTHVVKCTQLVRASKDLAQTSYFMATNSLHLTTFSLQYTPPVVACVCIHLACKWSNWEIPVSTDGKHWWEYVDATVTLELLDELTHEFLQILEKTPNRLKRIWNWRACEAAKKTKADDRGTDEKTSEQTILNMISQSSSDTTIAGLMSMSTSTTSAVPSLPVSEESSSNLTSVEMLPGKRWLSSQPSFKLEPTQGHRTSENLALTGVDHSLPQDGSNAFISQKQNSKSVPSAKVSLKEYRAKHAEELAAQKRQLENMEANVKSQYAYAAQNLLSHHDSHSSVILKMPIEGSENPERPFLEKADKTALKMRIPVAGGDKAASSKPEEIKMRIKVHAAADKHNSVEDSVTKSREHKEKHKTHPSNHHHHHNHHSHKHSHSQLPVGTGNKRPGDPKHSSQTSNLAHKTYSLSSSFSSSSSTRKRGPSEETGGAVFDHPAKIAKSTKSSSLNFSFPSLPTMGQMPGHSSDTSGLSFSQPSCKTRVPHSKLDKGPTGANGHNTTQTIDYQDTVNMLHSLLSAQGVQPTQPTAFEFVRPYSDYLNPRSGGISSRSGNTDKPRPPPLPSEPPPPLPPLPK
measured_endpoint: pIC50
Remember the convention: pIC50 equals -log10 of concentration in molar.

For Nc1nc(N[C@H]2CC3CCC2C3)sc1C(=O)c1ccccc1[N+](=O)[O-] (stereo partly shown) on CDK9 (Homo sapiens, UniProt P50750), measured pIC50 was 8.30

###

# Tested on: YB5 cells
# assay_overview: GFP reactivation in YB5 cells (flow cytometry)
# Format: cell-based, human
# conditions: Homo sapiens, 24 h; read-out: relative activity to Depsipeptide @ 5 μM %
measured_endpoint: Emax at 5 µM (%)
Return type: number; implicit unit %.

Entry Nc1nc(N[C@H]2CC3CCC2C3)sc1C(=O)c1ccccc1[N+](=O)[O-] (stereo partly drawn) [MC180295] ; Emax at 5 µM = 65.4

Entry Nc1nc(N[C@H]2CC3CCC2C3)sc1C(=O)c1ccc2nonc2c1 (stereo partly drawn) [MC180345] ; Emax at 5 µM = 3.61

Entry Nc1nc(N[C@H]2C[C@@H]3CC[C@H]2C3)sc1C(=O)c1cc2c(cc1[N+](=O)[O-])OCO2 [MC180300] ; Emax at 5 µM = 35.6

Entry Nc1nc(N[C@H]2CC3CCC2C3)sc1C(=O)c1cccc2nonc12 (stereo partly drawn) [MC180349] ; Emax at 5 µM = 91.2

Entry Nc1nc(N[C@H]2CC3CCC2C3)sc1C(=O)c1ccc([N+](=O)[O-])cc1 (stereo partly drawn) [MC180340] ; Emax at 5 µM = 13

Entry Nc1nc(N[C@H]2CC3CCC2C3)sc1C(=O)c1cccc([N+](=O)[O-])c1 (stereo partly drawn) [MC180339] ; Emax at 5 µM = 16.9

Entry N#Cc1ccccc1C(=O)c1sc(N[C@H]2CC3CCC2C3)nc1N (stereo partly drawn) [MC180342] ; Emax at 5 µM = 107

Entry Nc1nc(N[C@H]2CC3CCC2C3)sc1C(=O)c1cc2c(cc1[N+](=O)[O-])OCCO2 (stereo partly drawn) [MC180312] ; Emax at 5 µM = 35.6

Entry COc1cc(C(=O)c2sc(N[C@H]3CC4CCC3C4)nc2N)cc(OC)c1OC (stereo partly drawn) [MC180251] ; Emax at 5 µM = 0
